# Test system: DFO2036
# assay name: qHTS profiling for inhibitors of Plasmodium falciparum proliferation (AID 504749); also: nearly all actives have a fitted effect of over 60% in size
# condition notes: P. falciparum in erythrocytes, SYBR Green DNA, 72 h; series mostly up to 12.8 µM
Results filed as inconclusive are left out. The source made the active and inactive calls. Calls follow the shape of the dose curve; as a rule, active = well fitted inhibition curve with a large enough effect; inconclusive = small, poorly fitted or top-dose-only effect; inactive = flat fitted curve, though single readings scatter.
Hi there, use one of these labels in your reply, thanks! 1 for active, 0 for inactive

Past entries and their recorded results:
O=C1O[C@@H]([C@@H](O)CO)[C@@H](O)[C@H]1O = 0
CC(=O)N[C@H](CC(C)C)C(=O)O = 0
C1CCN2C[C@@H]3C[C@@H](CN4CCCC[C@H]34)[C@H]2C1 = 0
CO[C@]12C(COC(N)=O)C3=C(C(=O)C(C)=C(N)C3=O)N1CC1NC12 (stereo partly specified) = 1
CCCCCCCCCc1ccc(OCCOCCOCCOCCOCCOCCOCCOCCOCCO)cc1 = 0

Please share the test call associated with O=C1OC(CO)C(O)C(O)C1O (stereo unspecified) .
0

Please share the test call associated with Cc1ncc([N+](=O)[O-])n1C[C@H](O)CCl .
0

These entries and their values trace back to PubChem BioAssay (NCATS).
